Test system: HCT116 human colon cancer cells
Assay: MTT colorimetric proliferation / cell survival assay, HCT116
Conditions: read-out: IC50 HCTI16 Human colon cancer cells; containing 40 mg/mL BSA; 200 μM of added compound
Endpoint Label: pIC50
Remember the convention: pIC50 equals -log10 of concentration in molar.

Please report pIC50 for the following compound: CC(=O)OC[C@H]1O[C@@H]([S-])[C@H](OC(C)=O)[C@@H](OC(C)=O)[C@@H]1OC(C)=O.CCP(CC)CC.[Au+] [Auranofin]
4.52

###

Test system: MCF-7 human breast cell cancer cells
Experiment: MTT colorimetric proliferation / cell survival assay, MCF-7
Type: cell-based
Conditions: under the normal physiological condition, auranofin alone; read-out: IC50 value, proliferation of MCF-7 human breast cell cancer cells
Method: A flask with the cancer cells required for the experiment, with an original culture solution discarded, was washed for three times with 2 mL of PBS, 1 mL of pancreatin was added for digestion for 30 s, and 2 mL of a medium was added to terminate the digestion. […] 10 μL of a cell suspension was taken for cell counting, and spread on a 96-well plate, with 5000 cells per well and 3 duplications for each compound, and then the number of cells and cell wells was calculated. […]
Endpoint Label: IC50

State the measured IC50 (MCF-7 human breast cell cancer cells) of CC(=O)OC[C@H]1O[C@@H]([S-])[C@H](OC(C)=O)[C@@H](OC(C)=O)[C@@H]1OC(C)=O.CCP(CC)CC.[Au+]
> 30 µM
